koff reference
# tested-on: T1, human soluble urokinase plasminogen activator receptor (hsuPAR) (human, UniProt Q03405 23-303, limits assumed)
# T1 construct: also called human suPAR; rhuPAR-His
# test-protocol: BLI (Octet) off-rate screen of scFv
Unit s⁻¹ implied. Number only.

1. suPAR_DB02_B03 (scFv, V domains shown, Screened as scFv) VH: QVQLVQSGAEVKKPGASVKVSCKASGYTFIGNYIHWVRQAPGQGLEWMGWIDHENGSTIYDQKFQGRVTMTRDTSTSTVYMELSSLRSEDTAVYYCARGSDVDWFVYWGQGTLVTVSS VL: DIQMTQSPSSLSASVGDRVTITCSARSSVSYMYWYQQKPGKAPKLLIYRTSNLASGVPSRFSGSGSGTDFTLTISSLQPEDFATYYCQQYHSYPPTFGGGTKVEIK
0.00088

Give the reported koff for this binder. suPAR_DB01_G10 (scFv, V domains shown, Screened as scFv) VH: QVQLVQSGAEVKKPGASVKVSCKASGYTFTNYYMHWVRQAPGQGLEWMGWIDHEGGNTSYAQKFQGRVTMTRDTSTSTVYMELSSLRSEDTAVYYCARGYDVDWFVYWGQGTLVTVSS VL: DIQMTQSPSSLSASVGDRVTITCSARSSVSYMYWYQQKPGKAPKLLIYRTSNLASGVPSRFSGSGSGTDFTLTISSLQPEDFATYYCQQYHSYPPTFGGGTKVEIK
0.00343
